Cited source: patent US5610025A

- TARGET: UniProtKB P04040
- Sequence (P04040 2-527 limits assumed, species assumed): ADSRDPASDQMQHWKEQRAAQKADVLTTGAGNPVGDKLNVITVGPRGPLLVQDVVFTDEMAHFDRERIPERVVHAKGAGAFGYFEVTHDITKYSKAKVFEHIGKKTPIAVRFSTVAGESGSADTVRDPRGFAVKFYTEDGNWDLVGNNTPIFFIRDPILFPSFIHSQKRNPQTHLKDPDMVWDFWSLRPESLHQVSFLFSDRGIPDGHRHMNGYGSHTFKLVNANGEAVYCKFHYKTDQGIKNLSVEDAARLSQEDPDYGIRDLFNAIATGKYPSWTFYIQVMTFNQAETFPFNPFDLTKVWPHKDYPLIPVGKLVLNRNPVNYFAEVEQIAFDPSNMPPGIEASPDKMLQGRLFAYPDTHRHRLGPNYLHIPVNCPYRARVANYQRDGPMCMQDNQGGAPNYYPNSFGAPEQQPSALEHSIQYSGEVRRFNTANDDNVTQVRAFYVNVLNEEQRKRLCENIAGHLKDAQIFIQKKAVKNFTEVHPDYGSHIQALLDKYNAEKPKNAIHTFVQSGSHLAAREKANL
- PROTOCOL_DETAILS: Catalase inhibitor screening, aqueous hydrogen peroxide samples with added catalase, dye indicator/peroxidase system, absorbance at 514 nm
- Assay type: biochemical
Where a name gives a salt, the structure may show the parent alone.
Please go through the items and note down their % Recovery (of absorbance).
The reply should be a number in %, with the unit left off.

Specify measured % Recovery (of absorbance) for O=CO [Sodium formate] .
8

# return recorded % Recovery (of absorbance) for input CCO
6

Return % Recovery (of absorbance) for the following molecule: CO
7

Please indicate % Recovery (of absorbance) recorded for O=NO [Sodium nitrite]
30

Look up and state reported % Recovery (of absorbance) for O=[N+]([O-])[O-].O=[N+]([O-])[O-].[Cu+2] [Cupric nitrate]
85

Consider the molecule [Cl][Ni][Cl] [Nickel (II) chloride] . State its measured % Recovery (of absorbance).
60

Please give measured % Recovery (of absorbance) of the following entry: [F-].[Na+] [Sodium fluoride]
7
